Reported polymerase ribozyme fitness (log ratio) values are given for each entry in this list.
B1: TPR t1 (parent)
chain: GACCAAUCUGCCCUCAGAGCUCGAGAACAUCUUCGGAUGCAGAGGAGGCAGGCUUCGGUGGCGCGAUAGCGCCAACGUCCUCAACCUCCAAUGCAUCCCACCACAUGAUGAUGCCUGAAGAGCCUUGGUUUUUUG

# Variants of: B1
# TEST PROTOCOL: polymerase ribozyme fitness, log enrichment relative to wild type (log ratio); higher = more active; in vitro selection for triplet polymerase activity
Answer with the value's number alone.

See these solved cases before continuing.
IN: Name the recorded polymerase ribozyme fitness (log ratio) for U7G A111U .
OUT: -1.87

IN: Name the recorded polymerase ribozyme fitness (log ratio) for C72A U92A A119G G127C .
OUT: -1.04

IN: Name the recorded polymerase ribozyme fitness (log ratio) for G69C C94A U112G C124G .
OUT: -1.99

IN: Name the recorded polymerase ribozyme fitness (log ratio) for C3U G10U A26U U55C G69U U112C .
OUT: -3.58

IN: Name the recorded polymerase ribozyme fitness (log ratio) for C98U U125G .
OUT: -2.35

More entries:
IN: Name the recorded polymerase ribozyme fitness (log ratio) for A100U G113C .
OUT: -2.85

IN: Name the recorded polymerase ribozyme fitness (log ratio) for G71U U129C .
OUT: -0.505

IN: Name the recorded polymerase ribozyme fitness (log ratio) for A2U C76A .
OUT: -3.43

IN: Name the recorded polymerase ribozyme fitness (log ratio) for A16G G61C .
OUT: -2.19
